- ASSAY_PROCEDURE: chemical genetic growth profiling, strain panel (AID 1159580);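 also: tested at 20 µM; growth read once vehicle control cultures reached saturation at 30 °C; 1 = growth at the plate median or of vehicle wells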
- CONDITION_LABEL: S. cerevisiae deletion strains, growth OD, locus YKL203C, strain TOR2, stronger effect = lower value
Among all 5,500 compounds or so, about 2,000 (36%) were called active. Roughly 18% stayed inconclusive and do not appear here. Some of the results follow.
Exercise: state measured normalized growth for each of the compounds provided.
Answers are plain numbers.

Below are worked cases with known answers.
FC(F)(F)Oc1ccc(OCc2n[nH]c(=S)n2-c2ccc(Cl)cc2)cc1	1.05
CCn1nc(C)cc1C(=O)Sc1cccc(Br)c1	0.746
N#C/C(N=Cc1cc(Cl)cc(Cl)c1O)=C(\C#N)N=Cc1cc(Cl)cc(Cl)c1O	0.454
O=C(O/N=C1/CCCc2[nH]c3ccccc3c21)C1CCCCC1	0.931
ONC(=Nc1ccccc1Cl)c1ccccc1Cl	0.891

Return reported normalized growth values for all items listed beneath this line.
1. COc1ccc(N=C2SCC(c3ccc(C)cc3)=NN2CCO)cc1
2. COc1ccc(Br)c(C(=O)/C(C#N)=C/c2cccs2)c1
3. CO/N=C1/CC(C)(C)Cc2c(-c3ccn(C(=O)Nc4cccc(Cl)c4)n3)sc(SC)c21
4. FC(F)(F)Sc1ccc(OCc2n[nH]c(=S)n2-c2ccccc2)cc1

1.02
0.2
1.06
0.961

Return reported normalized growth values for all items listed beneath this line.
1. O=C1OC(c2ccccc2)=C/C1=C/c1ccccc1
2. N#Cc1ccc2[nH]cc(CCN(Cc3ccccc3)Cc3ccccc3)c2c1

0.614
1.04

###

- ASSAY_PROCEDURE: chemical genetic growth profiling, strain panel (AID 1159580)
- CONDITION_LABEL: S. cerevisiae deletion strains, growth OD, locus YDR334W, strain swr1
Out of some 5,500 compounds screened, about 2,000 (36%) were called active. Roughly 18% stayed inconclusive and do not appear here. No stated cut-off is given here; in the data, active means normalized growth mostly below about 0.91 (no sharp cut-off); inconclusive means no clear call, values can overlap the other calls; inactive means mostly above about 0.92. This is one part of the list.
Choose the fitting class; nothing outside True = active, False = inactive is accepted.

Here's what some known entries look like.
CC1=C2C(O)C(=O)OC3CC4C(C)(C)C(=O)C=C[C@]4(C)C(CC1)[C@]23C (stereo not given in full)	False
COc1cc(-c2cc(=O)c3c(O)c(OC)c(OC)c(OC)c3o2)cc(OC)c1OC	False
CNC[C@H](O)c1cccc(O)c1	False

Please share the test call associated with N#Cc1c(Cl)cccc1Cl .
False

And then COc1ccc(-c2cc(=O)c3c(O)c(OC)c(O[C@H]4O[C@H](CO[C@@H]5O[C@@H](C)[C@H](O)[C@@H](O)[C@H]5O)[C@@H](O)[C@H](O)[C@H]4O)cc3o2)cc1 , what is it?
False

And then COc1ccc(-c2cc(=O)c3c(OC)c(OC)c(OC)c(OC)c3o2)cc1OC , what is it?
False

And then CC(C)c1cccc(C(C)C)c1O , what is it?
False

And then COc1ccc(-c2cc(=O)c3c(O)c(OC)c(OC)c(OC)c3o2)cc1OC , what is it?
False

And then CCCc1nn(C)c2c(=O)[nH]c(-c3cc(S(=O)(=O)N4CCN(C)CC4)ccc3OCC)nc12 , what is it?
False

And then CC(C)c1cccc(O)c(=O)c1 , what is it?
True

###

- ASSAY_PROCEDURE: chemical genetic growth profiling, strain panel (AID 1159580);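 also: tested at 20 µM; growth read once vehicle control cultures reached saturation at 30 °C; 1 = growth at the plate median or of vehicle wells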
- CONDITION_LABEL: S. cerevisiae deletion strains, growth OD, locus YNL006W, strain LST8
In all, about 5,500 compounds went through this assay and about 2,000 (36%) were called active. Not shown: some 18% with an inconclusive outcome. Rule as the data show it: active = normalized growth mostly below about 0.91 (no sharp cut-off); inconclusive = no clear call, values can overlap the other calls; inactive = mostly above about 0.92. Some of the results follow.
Choose the fitting class; nothing outside T for active, F for inactive is accepted.

COc1ccc(N=C2SCC(c3ccc(C)cc3)=NN2CCO)cc1	F
Cc1cc(Br)c(O)c(/C=N\NC(=S)NC(C)(C)C)c1	F
O=C1Nc2ccccc2/C1=C\c1cccc2ccccc12	F
N#Cc1nccnc1N1CCN(C(=O)Nc2cc(Cl)cc(Cl)c2)CC1	F

Please share the test call associated with O=C1/C(=C/c2c[nH]c3ccccc23)CSc2ccccc21 .
F

And then CCCCCCCCCCCCSc1ncn[nH]1 , what is it?
F

And then CC(C)/C(=N/OC(=O)c1ccc([N+](=O)[O-])cc1)c1ccccc1 , what is it?
T

And then N#C/C(N=Cc1cc(Cl)cc(Cl)c1O)=C(\C#N)N=Cc1cc(Cl)cc(Cl)c1O , what is it?
F

And then O=S(=O)(c1cc(Cl)ccc1Cl)N1CCc2ccccc2C1 , what is it?
F

And then COc1ccccc1N1CCN(C(=O)C(C)c2ccc(CC(C)C)cc2)CC1 (configuration not stated) , what is it?
F

And then COc1ccc(Br)c(C(=O)/C(C#N)=C/c2cccs2)c1 , what is it?
T

And then O=C(Nc1cc2ccccc2s1)N1CCN(Cc2c(F)cccc2Cl)CC1 , what is it?
F

###

- ASSAY_PROCEDURE: chemical genetic growth profiling, strain panel (AID 1159580);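 also: tested at 20 µM; growth read once vehicle control cultures reached saturation at 30 °C; 1 = growth at the plate median or of vehicle wells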
- CONDITION_LABEL: S. cerevisiae deletion strains, growth OD, locus YNL271C, strain bni1, stronger effect = lower value
The campaign covered roughly 5,500 compounds. About 2,000 (36%) were called active. Inconclusive results (about 18%) are left out. Some of the results follow.
ATTRIBUTE_MEASURED: normalized growth
Give bare numbers.

Below are worked cases with known answers.
NC[C@H]1O[C@H](OC2[C@@H](N)C[C@@H](N)[C@H](O[C@H]3O[C@H](CO)[C@@H](O)[C@H](N)[C@H]3O)[C@H]2O)[C@H](O)[C@@H](O)[C@@H]1O (some centres undefined)	0.978
C/C=C/CC(C)C(O)C1C(=O)NC(CC)C(=O)N(C)CC(=O)N(C)C(CC(C)C)C(=O)NC(C(C)C)C(=O)N(C)C(CC(C)C)C(=O)NC(C)C(=O)NC(C)C(=O)N(C)C(CC(C)C)C(=O)N(C)C(CC(C)C)C(=O)N(C)C(C(C)C)C(=O)N1C (centres undefined)	1.01
CC(=O)OCC(=O)[C@@]1(O)CCC2C3C[C@H](C)C4=CC(=O)C=CC4(C)C3[C@@H](O)CC21C (some centres undefined)	1
O=c1c(O)cccc2c(C3Oc4cc(O)cc(O)c4CC3O)cc(O)c(O)c12 (centres undefined)	0.53
COc1cc(O)c2c(=O)cc(-c3ccc(OC)c(-c4c(O)cc(O)c5c(=O)cc(-c6ccc(O)cc6)oc45)c3)oc2c1	0.986
C[C@@H](CO)NC(=O)C1C=C2c3cccc4[nH]cc(c34)C[C@H]2N(C)C1 (some centres undefined)	1

Return reported normalized growth values for all items listed beneath this line.
1. COc1cc(C)c2c(=O)c3c(O)cc(O)cc3oc2c1
2. COC(=O)[C@H]1[C@H]2C[C@H]3c4[nH]c5cc(OC)ccc5c4CCN3C[C@H]2C[C@@H](OC(=O)c2cc(OC)c(OC)c(OC)c2)[C@@H]1OC
3. CCCc1nn(C)c2c(=O)[nH]c(-c3cc(S(=O)(=O)N4CCN(C)CC4)ccc3OCC)nc12
4. CC(C)(C)NCC(O)COc1cccc2c1C[C@H](O)[C@H](O)C2 (some centres undefined)
5. O=C(Oc1ccccc1C(=O)O)c1ccccc1O
6. CSCCC(N)C(=O)NC(CC(C)C)C(=O)NC(Cc1ccccc1)C(=O)O (centres undefined)
7. O=C(CCCN1CCC(O)(c2ccc(Cl)cc2)CC1)c1ccc(F)cc1

1. 0.953
2. 1.02
3. 0.99
4. 0.988
5. 0.993
6. 0.994
7. 1

Given the molecule CC1(C)S[C@@H]2[C@H](NC(=O)C(C(=O)O)c3ccccc3)C(=O)N2[C@H]1C(=O)O (some centres undefined) , what is its reported normalized growth?
0.984

###

- ASSAY_PROCEDURE: chemical genetic growth profiling, strain panel (AID 1159580);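 also: tested at 20 µM; growth read once vehicle control cultures reached saturation at 30 °C; 1 = growth at the plate median or of vehicle wells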
- CONDITION_LABEL: S. cerevisiae deletion strains, growth OD, locus YHR129C, strain ARP1, stronger effect = lower value
In all, about 5,500 compounds went through this assay and about 2,000 (36%) were called active. About 18% were inconclusive and are not listed. The list shows a part of the results.
Exercise: state measured normalized growth for each of the molecules provided.
Answers are plain numbers.

Below are worked cases with known answers.
CCn1nc(C(=O)O)c(=O)c2cc3c(cc21)OCO3	1
CC1(C)S[C@@H]2C(N3C(=O)[C@@H](c4ccccc4)NC3(C)C)C(=O)N2[C@H]1C(=O)O (stereo not given in full)	0.995
C[C@H]1O[C@@H](O[C@H]2[C@@H](O)C[C@H](O[C@H]3[C@@H](O)C[C@H](O[C@H]4CC[C@]5(C)C6C[C@@H](O)[C@]7(C)[C@@H](C8=CC(=O)OC8)CC[C@]7(O)C6CC[C@@H]5C4)O[C@@H]3C)O[C@@H]2C)C[C@H](O)[C@@H]1O (stereo not given in full)	0.993

Return reported normalized growth values for all items listed beneath this line.
1. COC(=O)CC1C(C)(C)C(OC(C)=O)[C@@H]2[C@@H](OC(C)=O)[C@]34O[C@@]2(O)[C@]1(C)C3CC[C@]1(C)C4=CC(=O)O[C@H]1c1ccoc1 (stereo not given in full)
2. CO[C@H]1[C@H](O)[C@@H](O[C@H]2CC[C@]3(C=O)C4CC[C@]5(C)[C@@H](C6=CC(=O)OC6)CC[C@]5(O)C4CC[C@@H]3C2)O[C@@H](C)[C@@H]1O (stereo not given in full)
3. CCC(=O)O[C@]1(C(=O)CCl)[C@@H](C)CC2C3CCC4=CC(=O)C=C[C@]4(C)[C@@]3(F)[C@@H](O)C[C@@]21C (stereo not given in full)
4. NC[C@H]1O[C@H](O[C@H]2[C@H](O)[C@@H](O[C@H]3O[C@H](CO)[C@@H](O)[C@H](N)[C@H]3O)[C@H](N)C[C@@H]2N)[C@H](N)[C@@H](O)[C@@H]1O
5. COC1=CC(=O)C=C(OC)C1=O
6. CC1Cc2ccccc2N1NC(=O)c1ccc(Cl)c(S(N)(=O)=O)c1 (stereo not given)

1.02
0.996
0.993
0.997
0.997
1.01
